These entries and their values trace back to ChEMBL document CHEMBL4000245.

Target: Xanthine dehydrogenase/oxidase (Bos taurus, UniProt P80457)
Sequence (P80457 whole entry): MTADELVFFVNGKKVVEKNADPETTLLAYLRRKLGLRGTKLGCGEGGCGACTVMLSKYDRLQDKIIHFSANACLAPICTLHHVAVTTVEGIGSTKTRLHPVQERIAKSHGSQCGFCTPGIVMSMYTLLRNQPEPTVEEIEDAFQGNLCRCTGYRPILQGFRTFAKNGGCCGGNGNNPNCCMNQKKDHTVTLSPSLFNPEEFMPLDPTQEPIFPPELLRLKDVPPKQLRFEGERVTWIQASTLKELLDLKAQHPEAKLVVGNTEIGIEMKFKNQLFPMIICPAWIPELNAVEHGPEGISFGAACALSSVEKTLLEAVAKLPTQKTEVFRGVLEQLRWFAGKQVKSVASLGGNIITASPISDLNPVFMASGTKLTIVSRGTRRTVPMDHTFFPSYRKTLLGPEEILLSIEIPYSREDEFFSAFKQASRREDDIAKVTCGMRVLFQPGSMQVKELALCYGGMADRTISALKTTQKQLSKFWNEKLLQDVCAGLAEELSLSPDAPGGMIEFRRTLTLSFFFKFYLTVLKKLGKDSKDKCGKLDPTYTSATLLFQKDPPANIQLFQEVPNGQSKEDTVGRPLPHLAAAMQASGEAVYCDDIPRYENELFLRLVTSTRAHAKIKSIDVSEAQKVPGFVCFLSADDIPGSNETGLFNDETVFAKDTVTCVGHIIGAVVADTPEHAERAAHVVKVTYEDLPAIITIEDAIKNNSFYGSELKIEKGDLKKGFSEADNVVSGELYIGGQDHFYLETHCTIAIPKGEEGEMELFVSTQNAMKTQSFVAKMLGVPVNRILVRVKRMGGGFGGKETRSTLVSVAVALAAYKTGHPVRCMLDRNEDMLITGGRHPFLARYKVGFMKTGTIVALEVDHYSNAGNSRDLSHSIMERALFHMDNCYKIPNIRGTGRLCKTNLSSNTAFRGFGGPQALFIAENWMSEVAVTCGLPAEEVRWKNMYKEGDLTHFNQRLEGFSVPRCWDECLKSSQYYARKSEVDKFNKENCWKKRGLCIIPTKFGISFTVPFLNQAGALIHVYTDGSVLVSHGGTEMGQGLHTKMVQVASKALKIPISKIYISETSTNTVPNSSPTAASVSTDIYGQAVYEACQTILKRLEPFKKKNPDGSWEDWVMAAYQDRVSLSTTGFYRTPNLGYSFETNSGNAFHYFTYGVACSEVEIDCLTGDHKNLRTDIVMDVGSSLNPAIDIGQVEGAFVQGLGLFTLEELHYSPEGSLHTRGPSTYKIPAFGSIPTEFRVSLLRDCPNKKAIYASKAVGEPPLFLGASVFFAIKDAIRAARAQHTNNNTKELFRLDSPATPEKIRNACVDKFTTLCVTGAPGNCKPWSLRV
Test: Mixed-type inhibition of bovine xanthine oxidase assessed as enzyme-inhibitor complex using xanthine as substrate after 60 secs by Lineweaver-Burk plot method
measurement.label: Ki (nM)
Answers are plain numbers, in nM.

Q. # input compound: O=Cc1ccccc1OCc1cn(Cc2ccc3c(c2)C(=O)c2ccccc2C3=O)nn1 ; wanted: its Ki
A. 570

###

Provide the reported inhibition at 50 µM of each item.
Target: Xanthine dehydrogenase/oxidase (Bos taurus, UniProt P80457)
Test: Inhibition of bovine xanthine oxidase assessed as reduction in uric acid levels at 50 uM using xanthine as substrate after 120 mins by spectrophotometry
Details: cattle, 2 h

Consider the worked cases shown below.
[[record]]
smiles_data = "CCCCCCn1cc(COc2ccccc2C=O)nn1"
measurement_label = "inhibition at 50 µM"
result = "43.5%"

[[record]]
smiles_data = "O=C1c2ccccc2C(=O)c2cc(Cn3cc(CO)nn3)ccc21"
measurement_label = "inhibition at 50 µM"
result = "31%"

[[record]]
smiles_data = "O=Cc1ccccc1OCc1cn(Cc2ccc3c(c2)C(=O)c2ccccc2C3=O)nn1"
measurement_label = "inhibition at 50 µM"
result = "90.7%"

[[record]]
smiles_data = "O=Cc1ccccc1OCc1cn(Cc2ccccc2)nn1"
measurement_label = "inhibition at 50 µM"
result = "46.7%"

[[record]]
smiles_data = "O=Cc1cc(F)ccc1OCc1cn(Cc2ccccc2)nn1"
measurement_label = "inhibition at 50 µM"
result = "83.4%"

[[record]]
smiles_data = "COc1cc(C=O)cc(OC)c1OCc1cn(Cc2ccc3c(c2)C(=O)c2ccccc2C3=O)nn1"
measurement_label = "inhibition at 50 µM"
result = "70.3%"


# evaluate next
Q. For Xanthine dehydrogenase/oxidase (Bos taurus, UniProt P80457), provide inhibition at 50 µM of O=Cc1cc(F)ccc1OCc1cn(Cc2ccc3c(c2)C(=O)c2ccccc2C3=O)nn1 please.
A. 88%

###

Biological target: Xanthine dehydrogenase/oxidase (Bos taurus)
Assay: Inhibition of bovine xanthine oxidase assessed as reduction in uric acid levels at 50 uM using xanthine as substrate after 120 mins by spectrophotometry
Settings: cattle, 2 h
measurement.label: inhibition at 50 µM (%)
Answers are plain numbers, in %.

Previously resolved entries follow.
[[record]]
smiles_data = "CCCCCCn1cc(COc2ccc(F)cc2C=O)nn1"
measurement_label = "inhibition at 50 µM"
result = 93

[[record]]
smiles_data = "Oc1ncnc2[nH]ncc12"
measurement_label = "inhibition at 50 µM"
result = 95.1

[[record]]
smiles_data = "N#Cc1ccc(OCc2cn(Cc3ccc4c(c3)C(=O)c3ccccc3C4=O)nn2)cc1"
measurement_label = "inhibition at 50 µM"
result = 7

[[record]]
smiles_data = "CC(=O)Nc1ccc(OCc2cn(Cc3ccc4c(c3)C(=O)c3ccccc3C4=O)nn2)cc1"
measurement_label = "inhibition at 50 µM"
result = 20.1


Could you now look at the following compound, please?
Q. What does the data say about its inhibition at 50 µM? Entry: O=Cc1cc(Cl)ccc1OCc1cn(Cc2ccc3c(c2)C(=O)c2ccccc2C3=O)nn1
A. 61.1

###

Biological target: Xanthine dehydrogenase/oxidase (Bos taurus)
Assay: Mixed-type inhibition of bovine xanthine oxidase assessed as enzyme-inhibitor-substrate complex using xanthine as substrate after 60 secs by Lineweaver-Burk plot method
measurement.label: pKi
Numbers only, as −log10 of the molar value.

Q. Fill blank: measured pKi of the compound O=Cc1ccccc1OCc1cn(Cc2ccc3c(c2)C(=O)c2ccccc2C3=O)nn1 is ____.
A. 6.03

###

Xanthine dehydrogenase/oxidase (Bos taurus) pIC50 data
Give bare numbers, as −log10 of the molar value.

Reference set, count: 4
[[record]]
smiles_data = "O=Cc1cc(Cl)ccc1OCc1cn(Cc2ccc3c(c2)C(=O)c2ccccc2C3=O)nn1"
result = 4.33

[[record]]
smiles_data = "O=Cc1ccccc1OCc1cn(Cc2ccc3c(c2)C(=O)c2ccccc2C3=O)nn1"
result = 6.22

[[record]]
smiles_data = "O=Cc1ccc(OCc2cn(Cc3ccc4c(c3)C(=O)c3ccccc3C4=O)nn2)cc1"
result = 4.52

[[record]]
smiles_data = "O=Cc1cc(F)ccc1OCc1cn(Cc2ccc3c(c2)C(=O)c2ccccc2C3=O)nn1"
result = 6.10


Parameters: items (list). Returns: pIC50 for each item.
1. O=Cc1ccc(F)cc1OCc1cn(Cc2ccc3c(c2)C(=O)c2ccccc2C3=O)nn1
2. O=Cc1cccc(OCc2cn(Cc3ccc4c(c3)C(=O)c3ccccc3C4=O)nn2)c1

A.
5.19
4.82
